Target: T1, cyno IL-33 N-His (cynomolgus monkey)
T1 chain: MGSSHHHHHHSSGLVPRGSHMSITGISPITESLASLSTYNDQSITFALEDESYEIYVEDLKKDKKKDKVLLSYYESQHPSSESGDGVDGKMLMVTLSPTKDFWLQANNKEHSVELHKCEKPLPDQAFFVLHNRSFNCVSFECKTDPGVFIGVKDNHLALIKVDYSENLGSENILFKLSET
Assay: SPR Biacore T200, 25 C
Please provide measured t1/2 for the entries that follow.
API: value field is a number in min; no unit string.

Lab book: t1/2 of H4H9629P (antibody, IgG4, V domains shown, also called RG4) VH: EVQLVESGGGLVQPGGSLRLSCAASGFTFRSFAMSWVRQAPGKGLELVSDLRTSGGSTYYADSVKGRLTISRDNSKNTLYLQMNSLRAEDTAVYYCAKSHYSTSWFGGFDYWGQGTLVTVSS VL: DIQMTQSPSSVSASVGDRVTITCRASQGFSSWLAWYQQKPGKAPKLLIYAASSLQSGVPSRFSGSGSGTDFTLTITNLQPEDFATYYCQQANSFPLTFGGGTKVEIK noted as 1

Sample H4H9675P (antibody, V domains shown) VH: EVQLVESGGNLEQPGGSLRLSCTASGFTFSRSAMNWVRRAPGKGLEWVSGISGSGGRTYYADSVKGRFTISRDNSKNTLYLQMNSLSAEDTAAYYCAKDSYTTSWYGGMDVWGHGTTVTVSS VL: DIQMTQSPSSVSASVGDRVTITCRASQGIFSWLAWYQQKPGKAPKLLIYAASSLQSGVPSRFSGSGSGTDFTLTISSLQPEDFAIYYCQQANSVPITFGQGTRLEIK ; t1/2 observed: 12

Noted for H4H9671P (antibody, V domains shown) VH: EVQLVESGGGLVQPGGSLRLSCAASGFTLRSYFMTWVRQVPGKGLEGVSAISGISGGTYYTDSVKGRFTISRDNSKNTLFLQMNSLRAEDTAVYFCARTVYSSSYYGGFQHWGQGTLVTVSS VL: DIQMTQSPSSVSVSVGDRVTITCRASQGISSWLAWYQQKPGKAPKLLIYVASSLQSGVPSRFSGSGSGTDFTLTISSLQPEDFATYYCQQTNSFPLTFGGGTKVEIK : its t1/2 reads 13

Quick note, t1/2 for H4H9660P (antibody, V domains shown) VH: EVQLVESGGGLVQPGGSLRLSCAASGITLSSYGMSWVRQAPGKGLEWVASIFGSGGGPYYADSVKGRFTMSRDNSKNTLYLQMNSLRAEDTAVYYCAKDRYSGSYYGGFDYWGRGTLVTVSS VL: DIQMTQSPSSVSASVGDRVTITCRASQGITSWLAWYQQKPGKAPTLLIYAASSLQTGVPSRFSGSGSGTDFTLTISSLQPEHFATYYCQQANSFPPTFGGGTKVEIK landed at 18

Summary for this binder, H4H9676P (antibody, V domains shown) VH: EVQLVESGGGLVQPGGSLRLSCSASGFTFSSYAMNWVRQAPGKGLEWVTAISGSGGGTYYADSVKGRFTISRDNSKNSLFLQLNSLRAEDTAVYYCAKQTYTSSWYGGFDIWGQGTMVTVSS VL: DIQMTQSPSSVSASVGDRVTITCRASQGFSSWLAWYQQIPGKAPKLLIYAASRLQSGVPSRFRGSGSGTDFTLTISSLQPEDFATYYCQQANSFPLTFGGGTKVEIK : t1/2 is 5

Form field t1/2, entry H4H9663P (antibody, V domains shown) VH: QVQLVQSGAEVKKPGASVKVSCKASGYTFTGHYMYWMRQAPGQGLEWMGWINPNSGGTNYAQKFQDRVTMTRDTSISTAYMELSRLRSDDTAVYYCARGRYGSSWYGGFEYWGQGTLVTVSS VL: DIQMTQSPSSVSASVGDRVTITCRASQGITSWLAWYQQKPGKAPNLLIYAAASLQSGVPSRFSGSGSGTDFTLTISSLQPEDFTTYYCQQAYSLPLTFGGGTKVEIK : 21

According to the records, this binder 10C12.38.H6.87Y.58I IgG4 (antibody, V domains shown, also called anti-IL33 10C12.38.H6.87Y.58I IgG4) VH: EVQLVESGGGLVQPGGSLRLSCAASGFTFSSFSMSWVRQAPGKGLEWVATISGGKTFTDYVDSVKGRFTISRDDSKNTLYLQMNSLRAEDTAVYYCTRANYGNWFFEVWGQGTLVTVSS VL: EIVLTQSPATLSLSPGERATLSCRASESVAKYGLSLLNWFQQKPGQPPRLLIFAASNRGSGIPARFSGSGSGTDFTLTISSLEPEDFAVYYCQQSKEVPFTFGQGTKVEIKR displays t1/2 of 42

Form field t1/2, entry H1M9566N (antibody, IgG1, V domains shown, also called RG2) VH: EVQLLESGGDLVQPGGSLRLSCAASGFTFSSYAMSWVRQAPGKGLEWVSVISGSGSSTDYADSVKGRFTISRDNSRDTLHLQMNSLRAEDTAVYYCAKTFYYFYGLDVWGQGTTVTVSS VL: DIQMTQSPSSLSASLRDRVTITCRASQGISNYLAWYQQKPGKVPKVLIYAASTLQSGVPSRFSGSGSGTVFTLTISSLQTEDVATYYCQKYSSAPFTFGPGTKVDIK : 151

What the record says about H1M9559N (antibody, IgG1, V domains shown, also called RG1) VH: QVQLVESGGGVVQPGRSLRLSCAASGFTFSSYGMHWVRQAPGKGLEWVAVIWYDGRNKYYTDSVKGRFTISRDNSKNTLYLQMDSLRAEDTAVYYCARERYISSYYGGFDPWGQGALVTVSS VL: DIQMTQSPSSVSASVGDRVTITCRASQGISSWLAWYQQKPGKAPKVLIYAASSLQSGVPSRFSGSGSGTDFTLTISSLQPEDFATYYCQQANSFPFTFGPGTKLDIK : t1/2 is 25

Measured t1/2 of H4H9662P (antibody, V domains shown) VH: EVQLVESGGGLVQPGGSLRLSCAASGFTFSSYALTWVRQAPGKGLEWVSFISGSGGRPFYADSVKGRFTISRDNSKNMLYLQMNSLRAEDTAIYYCAKSLYTTSWYGGFDSWGQGTLVTVSS VL: DIQMTQSPSSVSASVGDRVTITCRASQGVVSWLAWYQQKPGKAPKLLIYAASSLQSGVPSRFSGSGSGTDFTLTISSLQPEDFATYYCQQSNSFPFTLGPGTKVDIK : 37
